Origin of measurements: PubChem BioAssay (NCI)

- Tested on: OVCAR-3 ovarian
- Experiment description: NCI-60 one-dose screen, 48 h
- Assay conditions: 10 µM unless noted
- Procedure: Growth inhibition of the OVCAR-3 human tumor cell line is measured as a screen for anti-cancer activity. Cells are grown in 96 well plates and exposed to the test compound for 48 hours. Compounds are tested at a single concentration, which is 10^-5 M for most compounds. The reported endpoint is percent growth (GI% or GIPRCNT), where numbers from 0 - 100% represent growth inhibition, and numbers from -100% - 0 represent cell death. For example, a value of 40 represents 60% growth inhibition. […]
This is part of a sample that, as a whole, favours compounds with a hit. Of some 83,000 tested, about 20% had one in any assay. Calls of active or inactive are those of the source. Rule for the calls: active = growth percent below 10; inactive = the rest.
Labels: active, inactive

{"columns": ["Molecule", "Label"],
 "data": [
  ["C[N+](C)(CCCCCC[N+](C)(C)C1c2ccccc2-c2ccccc21)C1c2ccccc2-c2ccccc21", "inactive"],
  ["COc1cc(-c2cc3ncccc3c3[nH]c(=O)c4cccnc4c23)cc(OC)c1OC", "inactive"],
  ["Cc1ccc(Cc2cnc(NC(=O)/C=C/c3cccc(C)c3)s2)cc1", "active"],
  ["c1ccc2[nH]c(-c3cc(-c4ccc5c(c4)OCO5)n[nH]3)nc2c1", "inactive"],
  ["CC1(C)CC[C@]2(CO)CC[C@]3(C)C(=CC[C@@H]4[C@@]5(C)CC[C@H](NCO)C(C)(C)[C@@H]5CC[C@]43C)[C@@H]2C1", "active"],
  ["N#CC1=C(N)Oc2ccc3ccccc3c2C1c1ccccc1Cl (stereo unspecified)", "inactive"],
  ["C=C(C)[C@@H]1CC[C@]2(C(=O)N3CCCNCC3)CC[C@]3(C)[C@H](CC[C@@H]4[C@@]5(C)CCC(=O)C(C)(C)[C@@H]5CC[C@]43C)[C@@H]12", "inactive"],
  ["COc1ccc(/C=C/C(=O)NCC(C)O)cc1 (stereo unspecified)", "inactive"],
  ["CC(C)=CCC/C(C)=C/CC/C(C)=C/CSC[C@H](NC(=O)CCCCCN1CCN(C)CC1)C(=O)NC1CCCCCC1", "inactive"],
  ["CCOc1ccc(NC(=O)c2ccoc2COc2ccccc2)cc1", "inactive"],
  ["Cc1ccc(-c2ccc(/C=C(\\C#N)c3nc(-c4ccco4)cs3)o2)cc1", "inactive"]
]}

----------
- System: SK-MEL-28 melanoma
- Experiment description: NCI-60 one-dose screen, 48 h
- Assay conditions: 10 µM unless noted
The panel holds about 83,000 compounds, 20% with a hit somewhere; the sample as a whole holds those more often. Calls of active or inactive are those of the source. The calls were made as follows: active = growth percent below 10; inactive = the rest.
Labels: y for active, n for inactive

{"columns": ["Molecule", "Label"],
 "data": [
  ["O=C1NC(c2ccc(Cl)c(Cl)c2)=C/C1=C\\c1ccccc1", "n"],
  ["Oc1ccccc1/C=N\\NC(=S)Nc1ccc(F)cc1", "n"],
  ["Cc1cc(N(CCCNc2ccnc3cc(Cl)ccc23)Cc2ccco2)nc(Cl)n1", "n"],
  ["COc1cc(/C=N/NC(=S)NNC(=S)NC2CCCCC2)cc(OC)c1OC", "n"],
  ["O=c1c2sc3ncc(Br)cc3c2ncn1-c1cccc(Cl)c1", "n"],
  ["CC1(C)CC[C@]2(C(=O)Nc3ccccn3)CC[C@]3(C)C(=CC[C@@H]4[C@@]5(C)C/C(=C/c6ccncc6)C(=O)C(C)(C)[C@@H]5CC[C@]43C)[C@@H]2C1", "n"],
  ["O=C1CN(c2ccccc2)C(=O)C1C(=O)Nc1ccc(Cl)c(Cl)c1 (stereo not given)", "n"],
  ["N#C/C(=C\\c1ccc(-c2ccc(Cl)cc2)o1)c1nc(-c2ccco2)cs1", "n"],
  ["CN1CCN(c2nc(-c3csc(-c4cccs4)n3)cc3ccccc23)CC1", "n"],
  ["CCCCC[C@H]1C/C=C2/C(=O)C(Cl)=C[C@@H]2C/C=C\\CCCC(=O)O[C@@H](CCCCC)C/C=C2/C(=O)C(Cl)=C[C@@H]2C/C=C\\CCCC(=O)O1", "y"],
  ["OCC1OC(n2cnc3c(Cl)ncnc32)CC1O (stereo not given)", "n"],
  ["CCN1CCN(c2nc(C)cc(N(CCCNc3ccnc4cc(Cl)ccc34)Cc3ccco3)n2)CC1", "y"],
  ["C=CC(=O)N[C@H](Cc1ccc(-c2cc(Cl)cc(Cl)c2)cc1)[C@H](O)[C@@H](O)C(=O)O", "n"],
  ["COc1cc2[nH]c(C(=O)c3cc(OC)c(OC)c(OC)c3)c(N)c2cc1C#CCO", "n"],
  ["COc1ccc(C2(Cl)c3ccccc3N(c3ccccc3)c3ccccc32)cc1", "y"],
  ["Cn1nc(-c2ccccc2)c2c(-c3ccccc3)onc2c1=O", "n"],
  ["COc1ccc2c(c1)c1nc3cc(C)c(C)cc3nc1n2CCN(C)C", "y"],
  ["C/C(=N\\Nc1cc(C)c2ccccc2n1)c1ccccn1", "y"],
  ["N#C/C(=C\\c1ccc(-c2ccc(Br)cc2)o1)c1nc(-c2ccco2)cs1", "n"],
  ["C/C(=C(/c1ccccc1)c1ccc(N2C(=O)c3cccc4c(NCc5ccccc5)ccc(c34)C2=O)cc1)c1ccccc1", "n"]
]}
